Test: Solubility of fosfluconazole derivatives in pharmaceutical solvents (Table 2)
Type: physicochemical
Conditions: aqueous with cosolvent or surfactant or cyclodextrin, thermodynamic from solid; H2O/Vitamin E TPGS (90/10), 25° C.
Below, each entry is listed alongside its reported solubility at 24 h.

Worked cases, answers included:
compound="CCCCCCCCCC(=O)OCCOP(=O)([O-])OC(Cn1cncn1)(Cn1cncn1)c1ccc(F)cc1F.[Na+] [Example 2]" property_measured="solubility at 24 h" reported_result="> 10000 µg/mL"
compound="CCCCCCCCCOP(=O)([O-])OC(Cn1cncn1)(Cn1cncn1)c1ccc(F)cc1F.[Na+] [Example 14]" property_measured="solubility at 24 h" reported_result="> 10000 µg/mL"

Please give the measured solubility at 24 h for this compound: CCCCCCCCCOCCOP(=O)([O-])OC(Cn1cncn1)(Cn1cncn1)c1ccc(F)cc1F.[Na+] [Example 3]
> 10000 µg/mL

----------
Experiment: Chemical stability in pharmaceutical solvents (weight % remaining in solution, LCMS)
Format: physicochemical
Conditions: PEG 400, 1 day
PROPERTY MEASURED: weight percentage that remained in solution (% w/w)

compound=CCCCCCCCCC(=O)OCCOP(=O)([O-])OC(Cn1cncn1)(Cn1cncn1)c1ccc(F)cc1F.[Na+] reported_result=97.9
compound=CCCCCCCCCOP(=O)([O-])OC(Cn1cncn1)(Cn1cncn1)c1ccc(F)cc1F.[Na+] reported_result=99.3
compound=CCCCCCCCCOCCOP(=O)([O-])OC(Cn1cncn1)(Cn1cncn1)c1ccc(F)cc1F.[Na+] reported_result=94.9
compound="CCCCCCCCCC(=O)OCC(COP(=O)([O-])OC(Cn1cncn1)(Cn1cncn1)c1ccc(F)cc1F)OC(=O)CCCCCCCCC.[Na+] (centres unmarked)" reported_result=95.9
compound=C[N+](C)(C)CCOP(=O)([O-])OC(Cn1cncn1)(Cn1cncn1)c1ccc(F)cc1F reported_result=100.0

----------
Test: Solubility of fosfluconazole derivatives in pharmaceutical solvents (Table 2)
Type: physicochemical
Conditions: aqueous with cosolvent or surfactant or cyclodextrin, thermodynamic from solid; H2O/polysorbate 80 (80/20), 25° C.
Below, each entry is listed alongside its reported solubility at 24 h.

Please give the measured solubility at 24 h for this compound: CCCCCCCCCOCCOP(=O)([O-])OC(Cn1cncn1)(Cn1cncn1)c1ccc(F)cc1F.[Na+]
> 10000 µg/mL

Please give the measured solubility at 24 h for this compound: CCCCCCCCCC(=O)OCCOP(=O)([O-])OC(Cn1cncn1)(Cn1cncn1)c1ccc(F)cc1F.[Na+]
> 10000 µg/mL

Please give the measured solubility at 24 h for this compound: CCCCCCCCCC(=O)OCC(COP(=O)([O-])OC(Cn1cncn1)(Cn1cncn1)c1ccc(F)cc1F)OC(=O)CCCCCCCCC.[Na+] (stereo not drawn)
> 10000 µg/mL

----------
Below, each entry is listed alongside its reported solubility at 24 h.
Experiment: Solubility of fosfluconazole derivatives in pharmaceutical solvents (Table 2)
Type: physicochemical
Details: aqueous with cosolvent or surfactant or cyclodextrin, thermodynamic from solid; H2O/Vitamin E TPGS (90/10), 25° C.
The answer is to be given in µg/mL; state only the numeric part.

compound=C[N+](C)(C)CCOP(=O)([O-])OC(Cn1cncn1)(Cn1cncn1)c1ccc(F)cc1F property_measured="solubility at 24 h" units_label=µg/mL reported_result=7400

Please give the measured solubility at 24 h for this compound: CCOP(=O)(O[C@H]1CC[C@@]2(C)C(=CC[C@H]3[C@@H]4CC[C@H]([C@H](C)CCCC(C)C)[C@@]4(C)CC[C@@H]32)C1)OC(Cn1cncn1)(Cn1cncn1)c1ccc(F)cc1F (stereo partly drawn)
1400

----------
Assay: Solubility in pharmaceutical solvents (Table 3)
Type: physicochemical
Conditions: Miglyol 812, oil or lipid; read-out: solubility
PROPERTY MEASURED: solubility (mg/mL)
The answer is to be given in mg/mL; state only the numeric part.

Please give the measured solubility for this compound: CCOP(=O)(O[C@H]1CC[C@@]2(C)C(=CC[C@H]3[C@@H]4CC[C@H]([C@H](C)CCCC(C)C)[C@@]4(C)CC[C@@H]32)C1)OC(Cn1cncn1)(Cn1cncn1)c1ccc(F)cc1F (stereo partly shown) [Example 5]
12

----------
Assay: Chemical stability in pharmaceutical solvents (weight % remaining in solution, LCMS)
Assay type: physicochemical
Settings: PEG 400, 2 days
Method: Table 4 provides the chemical stability data in some pharmaceutical solvents, expressed as the weight percentage (% w/w) of the final fosfluconazole derivative produced and characterized in example 1 that remained in solution after a certain period of time. The test was carried out twice, and the remaining weight % was determined by Liquid Chromatography-Mass Spectrometry (LCMS). […]
PROPERTY MEASURED: weight percentage that remained in solution (% w/w)

molecule="CCCCCCCCCOP(=O)([O-])OC(Cn1cncn1)(Cn1cncn1)c1ccc(F)cc1F.[Na+] [Example 14]" reported_result=99.4
molecule="CCCCCCCCCOCCOP(=O)([O-])OC(Cn1cncn1)(Cn1cncn1)c1ccc(F)cc1F.[Na+] [Example 3]" reported_result=95.0
molecule="CCCCCCCCCC(=O)OCCOP(=O)([O-])OC(Cn1cncn1)(Cn1cncn1)c1ccc(F)cc1F.[Na+] [Example 2]" reported_result=98.1
molecule="CCCCCCCCCC(=O)OCC(COP(=O)([O-])OC(Cn1cncn1)(Cn1cncn1)c1ccc(F)cc1F)OC(=O)CCCCCCCCC.[Na+] (centres unmarked) [Example 4]" reported_result=96.7
molecule="C[N+](C)(C)CCOP(=O)([O-])OC(Cn1cncn1)(Cn1cncn1)c1ccc(F)cc1F [Example 1]" reported_result=99.8

----------
Assay: Solubility of fosfluconazole derivatives in pharmaceutical solvents (Table 2)
Format: physicochemical
Conditions: water (pH 7), aqueous buffer, thermodynamic from solid; H2O (pH = 7), 25° C.
PROPERTY MEASURED: solubility at 24 h

Worked cases, answers included:
compound="CCCCCCCCCC(=O)OCCOP(=O)([O-])OC(Cn1cncn1)(Cn1cncn1)c1ccc(F)cc1F.[Na+] [Example 2]" property_measured="solubility at 24 h" reported_result="> 10000 µg/mL"
compound="CCCCCCCCCC(=O)OCC(COP(=O)([O-])OC(Cn1cncn1)(Cn1cncn1)c1ccc(F)cc1F)OC(=O)CCCCCCCCC.[Na+] (stereo not drawn) [Example 4]" property_measured="solubility at 24 h" reported_result="9900 µg/mL"

Moving on to another compound below.
Please give the measured solubility at 24 h for this compound: CCOP(=O)(O[C@H]1CC[C@@]2(C)C(=CC[C@H]3[C@@H]4CC[C@H]([C@H](C)CCCC(C)C)[C@@]4(C)CC[C@@H]32)C1)OC(Cn1cncn1)(Cn1cncn1)c1ccc(F)cc1F (stereo partly drawn) [Example 5]
< 1 µg/mL

----------
Assay: Chemical stability in pharmaceutical solvents (weight % remaining in solution, LCMS)
Format: physicochemical
Conditions: PEG 400, 14 days
PROPERTY MEASURED: weight percentage that remained in solution (% w/w)

compound=CCCCCCCCCOP(=O)([O-])OC(Cn1cncn1)(Cn1cncn1)c1ccc(F)cc1F.[Na+] units_label="% w/w" reported_result=100.0
compound="CCCCCCCCCC(=O)OCC(COP(=O)([O-])OC(Cn1cncn1)(Cn1cncn1)c1ccc(F)cc1F)OC(=O)CCCCCCCCC.[Na+] (centres unmarked)" units_label="% w/w" reported_result=97.3
compound=CCCCCCCCCOCCOP(=O)([O-])OC(Cn1cncn1)(Cn1cncn1)c1ccc(F)cc1F.[Na+] units_label="% w/w" reported_result=95.1
compound=CCCCCCCCCC(=O)OCCOP(=O)([O-])OC(Cn1cncn1)(Cn1cncn1)c1ccc(F)cc1F.[Na+] units_label="% w/w" reported_result=98.7
compound=C[N+](C)(C)CCOP(=O)([O-])OC(Cn1cncn1)(Cn1cncn1)c1ccc(F)cc1F units_label="% w/w" reported_result=100.0

----------
Assay: Chemical stability in pharmaceutical solvents (weight % remaining in solution, LCMS)
Assay type: physicochemical
Conditions: H2O (pH = 7), 4 hours
PROPERTY MEASURED: weight percentage that remained in solution (% w/w)

compound=CCCCCCCCCOCCOP(=O)([O-])OC(Cn1cncn1)(Cn1cncn1)c1ccc(F)cc1F.[Na+] reported_result=94.8
compound=CCCCCCCCCC(=O)OCCOP(=O)([O-])OC(Cn1cncn1)(Cn1cncn1)c1ccc(F)cc1F.[Na+] reported_result=97.8
compound=C[N+](C)(C)CCOP(=O)([O-])OC(Cn1cncn1)(Cn1cncn1)c1ccc(F)cc1F reported_result=99.6
compound=CCCCCCCCCOP(=O)([O-])OC(Cn1cncn1)(Cn1cncn1)c1ccc(F)cc1F.[Na+] reported_result=99.1
compound="CCCCCCCCCC(=O)OCC(COP(=O)([O-])OC(Cn1cncn1)(Cn1cncn1)c1ccc(F)cc1F)OC(=O)CCCCCCCCC.[Na+] (centres unmarked)" reported_result=95.2
